Catalogue of 5-HT2/5-HT7 readings, one per entry.
Biological target: human serotonin 5-HT7 receptor subtype (Homo sapiens)
Construct: expressed in transfected cells
Sequence (P34969 whole entry): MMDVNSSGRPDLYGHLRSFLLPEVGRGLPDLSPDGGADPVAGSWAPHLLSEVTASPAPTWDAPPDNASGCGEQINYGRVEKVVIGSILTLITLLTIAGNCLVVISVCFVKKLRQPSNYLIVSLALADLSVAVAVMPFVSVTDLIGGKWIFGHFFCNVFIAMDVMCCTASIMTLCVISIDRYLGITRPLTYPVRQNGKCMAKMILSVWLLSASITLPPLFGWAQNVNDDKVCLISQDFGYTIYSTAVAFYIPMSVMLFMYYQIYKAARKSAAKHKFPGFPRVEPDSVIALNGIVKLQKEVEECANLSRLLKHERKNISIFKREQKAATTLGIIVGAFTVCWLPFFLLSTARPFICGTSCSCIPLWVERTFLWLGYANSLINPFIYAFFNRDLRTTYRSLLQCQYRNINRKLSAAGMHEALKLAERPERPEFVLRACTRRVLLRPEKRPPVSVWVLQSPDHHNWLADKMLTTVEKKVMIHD
Test: Binding affinity for 5-HT7 receptor ([3H]-5CT binding test)
Settings: ratio of Ki of 5-HT2 to Ki of 5-HT7 (selectivity)

[[record]]
compound = "Cl.O=C1Nc2ccccc2N2CCN(CCCCC34CCCc5cccc(c53)NC4=O)CC12 (stereo not drawn) [Compd. of Syn. Ex. 13b]"
endpoint_value = 48

[[record]]
compound = "O=C1Nc2cccc3c2C1(CCCCN1CCN2c4ccccc4[S+]([O-])CC2C1)CCC3 (stereo not drawn) [Compd. of Syn. Ex. 10b]"
endpoint_value = ">143"


Kindly review the next compound as well.
Consider COCn1c2c(c3ccccc31)CCN(CCCCC13CCCc4cccc(c41)NC3=O)C2 (stereo not drawn) [Compd. of Syn. Ex. 21a] . Its measured 5-HT2/5-HT7 is 40
